Please respond with reported In Vitro Score for every item in the list.
- assay.target: HLA-B*08:01 (recombinant MHC class I molecule) (human)
- procedure.text: REVEAL MHC-peptide binding assay, recombinant HLA-B*08:01

Answered examples (3):
[[record]]
binder = "FIIFWVQRG [Synthetic peptide FIIFWVQRG]"
result = "0.6 score, % of positive control peptide"

[[record]]
binder = "FWVHRGRKK [Synthetic peptide FWVHRGRKK]"
result = "0 score, % of positive control peptide"

[[record]]
binder = "WVKRGRKKS [Synthetic peptide WVKRGRKKS]"
result = "4.3 score, % of positive control peptide"


# input for lookup
IN: Consider the binder shown here: VAFIIFWVL [Synthetic peptide VAFIIFWVL] What is its recorded In Vitro Score?
OUT: 0 score, % of positive control peptide

All values here come from patent US20200297760A1.
